- Test system: IL-6
- Assay method text: poly(I:C)-induced IL-6 gene expression in hSAECs (Q-RT-PCR)
- Type: cell-based, human
- Assay conditions: Homo sapiens, read-out: Gene-expression inhibition hSAECs (IL-6) IC50

{"columns": ["Compound", "Measure unit", "Relation sign", "IC50"],
 "data": [
  ["O=C(Nc1ccc(C(F)(F)F)cc1)Nc1ccc(S(=O)(=O)N2CCCC2)cc1 [ZL0497]", "nM", ">", 10000],
  ["O=C(Nc1ccc(C(F)(F)F)cc1)Nc1ccc(S(=O)(=O)N2CCC[C@H]2CN2CCC(O)CC2)cc1 [ZL0591]", "nM", "=", 240],
  ["O=C(Nc1ccc(C(F)(F)F)cc1)Nc1ccc(S(=O)(=O)N2CCCC2CN2CCOCC2)cc1 (stereo in doubt) [ZL0590]", "nM", "=", 390]
]}

---

Entries and their measured pIC50 follow.
- Tested on: BRD3 (BD2) (Homo sapiens (Human), UniProt Q15059)
- Sequence (Q15059 306-415, species assumed): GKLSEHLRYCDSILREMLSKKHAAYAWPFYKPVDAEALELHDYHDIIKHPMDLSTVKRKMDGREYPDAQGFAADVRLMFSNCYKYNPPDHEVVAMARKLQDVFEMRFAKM
- Assay method text: Bromodomain binding affinity
pIC50: −log10 of the molar value.

{"columns": ["Compound", "Tested on", "Relation sign", "pIC50"],
 "data": [
  ["O=C(Nc1ccc(C(F)(F)F)cc1)Nc1ccc(S(=O)(=O)N2CCC[C@H]2CN2CCC(O)CC2)cc1 [ZL0591]", "BRD3 (BD2) (Homo sapiens (Human), UniProt Q15059)", "=", 5.71],
  ["COc1cc(OC)c2c(=O)cc(-c3cc(C)c(OC[C@H](O)CN4CCN(C)CC4)c(C)c3)oc2c1 [ZL0516]", "BRD3 (BD2) (Homo sapiens (Human), UniProt Q15059)", "=", 5.60],
  ["O=C(Nc1ccc(C(F)(F)F)cc1)Nc1ccc(S(=O)(=O)N2CCCC2CN2CCOCC2)cc1 (stereo in doubt) [ZL0590]", "BRD3 (BD2) (Homo sapiens (Human), UniProt Q15059)", "=", 5.70],
  ["O=C(Nc1ccc(C(F)(F)F)cc1)Nc1ccc(S(=O)(=O)N2CCCC2)cc1 [ZL0497]", "BRD3 (BD2) (Homo sapiens (Human), UniProt Q15059)", "<", 5.00]
]}

---

This section presents molecules with their documented IC50 values.
- Tested on: BRD4 BD1 (Homo sapiens (Human), UniProt O60885)
- Assay method text: TR-FRET bromodomain binding assay
- From the text: Time resolved (TR)-fluorescence resonance energy transfer (TR-FRET). Binding affinities to the bromodomains of BRD-4 and BRD-2 were quantitated using commercially available TR-FRET Assay kit (Cayman chemicals). The ‘donor’ fluorophore is human BD1 or BD2 of BRD-4 and BRD-2 (amino acids 49-170) directly labeled with a europium (Eu3+) chelate. […] Plate-based time-resolved fluorescence energy transfer (TR-FRET) assays to determine the binding ability of BRD4 compounds to bromodomains of BRD2 and BRD4.

{"columns": ["Compound string", "Measure unit", "Relation sign", "IC50"],
 "data": [
  ["Cc1cc(/N=N/c2ccc3c(c2)CCC(=O)N3)c(N)cc1O", "nM", "=", 27],
  ["O=C(Nc1ccc(C(F)(F)F)cc1)Nc1ccc(S(=O)(=O)N2CCCC2)cc1", "nM", ">", 10000],
  ["COC(=O)[C@@H]1CCCN1S(=O)(=O)c1ccc(NC(=O)Nc2ccc(C(F)(F)F)cc2)cc1", "nM", "=", 103],
  ["COc1cc(OC)c2c(=O)cc(-c3cc(C)c(OCCO)c(C)c3)oc2c1", "nM", "=", 164],
  ["O=C(Nc1ccc(C(F)(F)F)cc1)Nc1ccc(S(=O)(=O)N2CCC[C@H]2CN2CCC(O)CC2)cc1", "nM", "=", 96]
]}

---

- Tested on: BRD2 BD2 (Homo sapiens (Human), UniProt P25440)
- Sequence (P25440 344-453): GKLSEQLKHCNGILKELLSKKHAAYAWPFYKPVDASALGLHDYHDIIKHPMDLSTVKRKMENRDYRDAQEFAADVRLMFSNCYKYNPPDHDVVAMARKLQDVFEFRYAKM
- Assay method text: TR-FRET bromodomain binding assay

{"columns": ["Molecule", "Relation sign", "IC50 [µM]"],
 "data": [
  ["O=C(Nc1ccc(C(F)(F)F)cc1)Nc1ccc(S(=O)(=O)N2CCC[C@H]2CN2CCC(O)CC2)cc1", "=", 1.34],
  ["O=C(Nc1ccc(C(F)(F)F)cc1)Nc1ccc(S(=O)(=O)N2CCCC2CN2CCOCC2)cc1 (stereo in doubt)", "=", 1.28],
  ["O=C(Nc1ccc(C(F)(F)F)cc1)Nc1ccc(S(=O)(=O)N2CCCC2)cc1", ">", 10]
]}

---

- Tested on: BRDT (BD1) (Homo sapiens (Human))
- Assay method text: Bromodomain binding affinity
pIC50: −log10 of the molar value.
Metric name: pIC50

{"columns": ["Compound", "Tested on", "Metric name", "Relation sign", "Reported"],
 "data": [
  ["COc1cc(OC)c2c(=O)[nH]c(-c3cc(C)c(OCCO)c(C)c3)nc2c1 [RVX-208, reference compound]", "BRDT (BD1) (Homo sapiens (Human))", "pIC50", "=", 5.32],
  ["O=C(Nc1ccc(C(F)(F)F)cc1)Nc1ccc(S(=O)(=O)N2CCCC2CN2CCOCC2)cc1 (stereo in doubt)", "BRDT (BD1) (Homo sapiens (Human))", "pIC50", "=", 5.63],
  ["O=C(Nc1ccc(C(F)(F)F)cc1)Nc1ccc(S(=O)(=O)N2CCC[C@H]2CN2CCC(O)CC2)cc1", "BRDT (BD1) (Homo sapiens (Human))", "pIC50", "=", 5.66],
  ["O=C(Nc1ccc(C(F)(F)F)cc1)Nc1ccc(S(=O)(=O)N2CCCC2)cc1", "BRDT (BD1) (Homo sapiens (Human))", "pIC50", "<", 5.00]
]}

---

IL-6 (%): recorded values
- Test system: IL-6
- Assay method text: poly(I:C)-induced IL-6 gene expression in hSAECs (Q-RT-PCR)
- Assay type: cell-based, human
- Assay conditions: inhibitory effect on induction of gene
Metric name: IL-6 (%)

{"columns": ["Compound", "Reported"],
 "data": [
  ["COc1cc(OC)c2c(=O)cc(-c3cc(C)c(OC[C@H](O)CN4CCCCC4)c(C)c3)oc2c1 [ZL0513]", 0.3],
  ["Cc1cc(/N=N/c2ccc(S(=O)(=O)NC3CCCC3)cc2)c(N)cc1O [ZL0454]", 0.9],
  ["O=C(Nc1ccc(C(F)(F)F)cc1)Nc1ccc(S(=O)(=O)N2CCCC2CN2CCOCC2)cc1 (stereo in doubt) [ZL0590]", 0.26],
  ["CC(C)(C)c1cc(-c2nnc(-c3cc(F)cc(Cl)c3)o2)no1 [ZL0165]", 2.5],
  ["Cc1ccc(S(=O)(=O)OC[C@H]2CCCN2S(=O)(=O)c2ccc(NC(=O)Nc3ccc(C(F)(F)F)cc3)cc2)cc1 [ZL0586]", 3.4],
  ["COc1cc(OC)c2c(=O)cc(-c3cc(C)c(OCCO)c(C)c3)oc2c1 [ZL0468]", 2.25],
  ["O=C(Nc1ccc(C(F)(F)F)cc1)Nc1ccc(S(=O)(=O)N2CCC[C@H]2CO)cc1 [ZL0556]", 0.85],
  ["O=C(Nc1ccc(C(F)(F)F)cc1)N1CCN(c2ccc(O)cc2)CC1 [ZL0589]", 4.2]
]}

---

- Tested on: BRD2 BD1 (Homo sapiens (Human))
- Sequence (P25440 74-180): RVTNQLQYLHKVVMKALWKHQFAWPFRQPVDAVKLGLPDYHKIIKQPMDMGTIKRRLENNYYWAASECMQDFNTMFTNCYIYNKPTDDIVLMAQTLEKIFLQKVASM
- Assay method text: TR-FRET bromodomain binding assay
pIC50: −log10 of the molar value.
Metric name: pIC50

{"columns": ["Molecule", "Relation sign", "Reported"],
 "data": [
  ["O=C(Nc1ccc(C(F)(F)F)cc1)Nc1ccc(S(=O)(=O)N2CCCC2CN2CCOCC2)cc1 (stereo in doubt)", "=", 6.08],
  ["O=C(Nc1ccc(C(F)(F)F)cc1)Nc1ccc(S(=O)(=O)N2CCC[C@H]2CN2CCC(O)CC2)cc1", "=", 6.14],
  ["O=C(Nc1ccc(C(F)(F)F)cc1)Nc1ccc(S(=O)(=O)N2CCCC2)cc1", "<", 5.00]
]}

---

- Tested on: BRD3 (BD1) (Homo sapiens (Human), UniProt Q15059)
- Sequence (Q15059 34-140, species assumed): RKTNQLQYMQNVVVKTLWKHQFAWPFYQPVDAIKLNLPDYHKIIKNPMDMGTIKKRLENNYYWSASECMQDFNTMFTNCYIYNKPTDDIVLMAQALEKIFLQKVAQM
- Assay method text: Bromodomain binding affinity
Metric name: IC50 (µM)

{"columns": ["Compound", "Measure unit", "Relation sign", "Reported"],
 "data": [
  ["COc1cc(OC)c2c(=O)cc(-c3cc(C)c(OC[C@H](O)CN4CCN(C)CC4)c(C)c3)oc2c1", "µM", "=", 3.12],
  ["O=C(Nc1ccc(C(F)(F)F)cc1)Nc1ccc(S(=O)(=O)N2CCC[C@H]2CN2CCC(O)CC2)cc1", "µM", "=", 2.08],
  ["O=C(Nc1ccc(C(F)(F)F)cc1)Nc1ccc(S(=O)(=O)N2CCCC2CN2CCOCC2)cc1 (stereo in doubt)", "µM", "=", 2.27],
  ["O=C(Nc1ccc(C(F)(F)F)cc1)Nc1ccc(S(=O)(=O)N2CCCC2)cc1", "µM", ">", 10]
]}

Source listed as patent US11117865B2.
